observation_type: melting point

C#CCOc1ccc(C(=O)C=Cc2cccnc2)c(O)c1
115 to 117 °C
C=C(C)COc1ccc(C(=O)C=Cc2cccnc2)c(O)c1
164 to 166 °C
CC(C)=CCOc1ccc(C(=O)C=Cc2ccc(C)cc2)c(O)c1
108 to 109 °C
C=C(C)COc1ccc(C(=O)C=Cc2ccc(OC)cc2OC)c(O)c1
106 to 107 °C

Alright, here's another compound for you.
Incoming: Returns the measured melting point for the input compound. Input: C=C(C)COc1ccc(C(=O)C=Cc2ccc(N(C)C)cc2)c(O)c1
Outgoing: 85 to 87 °C

====

Measured melting point, listed per entry for reference.

See these solved cases before continuing.
C=C(C)COc1ccc(C(=O)C=Cc2cccc(OC)c2)c(O)c1 [Compound IX]
97 to 100 °C
C#CCOc1ccc(C(=O)C=Cc2ccc(C#N)cc2)c(O)c1 [Compound XXIV]
188 to 190 °C
CC(C)=CCOc1ccc(C(=O)C=Cc2ccc(C(F)(F)F)cc2)c(O)c1 [Compound XXII]
122 to 123 °C
CC(C)=CCOc1ccc(C(=O)C=Cc2c(Cl)cccc2Cl)c(O)c1 [Compound XXI]
101 to 102 °C
CC(C)=CCOc1ccc(C(=O)C=Cc2cccc([N+](=O)[O-])c2)c(O)c1 [Compound XX]
125 to 126 °C

Incoming: Fill in: melting point of C=C(C)COc1ccc(C(=O)C=Cc2ccc(Br)cc2)c(O)c1 [Compound XVIII] is ___
Outgoing: 121 to 122 °C
